- Test system: JIMT1 breast cancer cells
- MEASUREMENT DESCRIPTION: MTS cell viability assay, JIMT1
- Format: cell-based
- CONDITIONS: Homo sapiens, JIMT-1, 72 h treatment
Reported IC50 values for the following compounds.
Expressed in µM, but write only the number.

Example cases with answers are listed next.
[[record]]
smi = "O=C(NO)c1ccc(CNc2nc(-c3cccnc3)nc(N3CCOCC3)n2)cc1"
target_or_system = "JIMT1 breast cancer cells"
measurement_units = "µM"
measured_value = 10.5

[[record]]
smi = "COc1ccc(-c2nc(NCc3ccc(C(=O)NO)cc3)nc(N3CCOCC3)n2)cn1"
target_or_system = "JIMT1 breast cancer cells"
measurement_units = "µM"
measured_value = 3.5

[[record]]
smi = "O=C(NO)c1ccc(CNc2nc(-c3ccccc3)nc(N3CCOCC3)n2)cc1"
target_or_system = "JIMT1 breast cancer cells"
measurement_units = "µM"
measured_value = 8.58

[[record]]
smi = "Nc1ncc(-c2nc(NCc3ccc(C(=O)NO)cc3)nc(N3CCOCC3)n2)cn1"
target_or_system = "JIMT1 breast cancer cells"
measurement_units = "µM"
measured_value = 15.6

[[record]]
smi = "O=C(NO)c1ccc(CNc2nc(-c3cccc(O)c3)nc(N3CCOCC3)n2)cc1"
target_or_system = "JIMT1 breast cancer cells"
measurement_units = "µM"
measured_value = 5.72


Let us move to another entry and its IC50.
Prompt line: I am curious: what IC50 value has been reported for `Nc1ccc(-c2nc(NCc3ccc(C(=O)NO)cc3)nc(N3CCOCC3)n2)cn1` ?
Response line: 8.97
